IC50 overview
Target: human PLK1 (Homo sapiens)
Construct: FLAG (DYKDDDDK) (N); made in house; host or cells: Sf21 insect cells, recombinant baculovirus (pFASTBAC1, Bac-to-Bac)
Assay: PLK1 in vitro enzymatic activity assay (phosphorylation of alpha casein by recombinant PLK1)
Format: biochemical
Settings: recombinant FLAG-tagged PLK1, alpha casein substrate, 500 nmol/L ATP, 40 min at room temperature; read-out: pIC50 (PLK1) (converted)

Reference set (7 entries):
- COc1cc(C(=O)N2CCN(CC3CC3)CC2)ccc1Nc1ncc2c(n1)N(C1CCCC1)CC(F)(F)C(=O)N2C: > 2 nM
- COc1cc(C(=O)NC2CC2)ccc1Nc1ncc2c(n1)N(C1CCCCC1)CC(F)(F)C(=O)N2C: ≤ 2 nM
- C=C[C@@]1(F)CN(C2CCCC2)c2nc(Nc3ccc(C(=O)NC4CCN(CCO)CC4)cc3OC)ncc2N(C)C1=O: > 2 nM
- CCC1(F)CN(C2CCCCC2)c2nc(Nc3ccc(C(=O)NC4CN(C)C4)cc3OC)ncc2N(C)C1=O (centres unmarked): > 2 nM
- COc1cc(C(=O)N[C@@H]2CCCC[C@@H]2O)ccc1Nc1ncc2c(n1)N(C1CCCCC1)CC(F)(F)C(=O)N2C (racemic): ≤ 2 nM
- COc1cc(C(=O)NC2CCN(C)CC2)ccc1Nc1ncc2c(n1)N(C1CCCC1)CC(F)C(=O)N2C (centres unmarked): ≤ 2 nM
- COc1cc(C(=O)NC2CC2)ccc1Nc1ncc2c(n1)N(C1CCCC1)CC(F)(F)C(=O)N2C: > 2 nM

We now examine a further compound.
Exercise: Requested read-out: IC50. Entry: COc1cc(C(N)=O)ccc1Nc1ncc2c(n1)N(C1CCCCC1)CC(F)(F)C(=O)N2C
Solution: ≤ 2 nM

====

Molecular target: human PLK1 (Homo sapiens, UniProt P53350)
Construct: FLAG (DYKDDDDK) (N); made in house; host or cells: Sf21 insect cells, recombinant baculovirus (pFASTBAC1, Bac-to-Bac)
Sequence (P53350 with tags, fused parts or gaps): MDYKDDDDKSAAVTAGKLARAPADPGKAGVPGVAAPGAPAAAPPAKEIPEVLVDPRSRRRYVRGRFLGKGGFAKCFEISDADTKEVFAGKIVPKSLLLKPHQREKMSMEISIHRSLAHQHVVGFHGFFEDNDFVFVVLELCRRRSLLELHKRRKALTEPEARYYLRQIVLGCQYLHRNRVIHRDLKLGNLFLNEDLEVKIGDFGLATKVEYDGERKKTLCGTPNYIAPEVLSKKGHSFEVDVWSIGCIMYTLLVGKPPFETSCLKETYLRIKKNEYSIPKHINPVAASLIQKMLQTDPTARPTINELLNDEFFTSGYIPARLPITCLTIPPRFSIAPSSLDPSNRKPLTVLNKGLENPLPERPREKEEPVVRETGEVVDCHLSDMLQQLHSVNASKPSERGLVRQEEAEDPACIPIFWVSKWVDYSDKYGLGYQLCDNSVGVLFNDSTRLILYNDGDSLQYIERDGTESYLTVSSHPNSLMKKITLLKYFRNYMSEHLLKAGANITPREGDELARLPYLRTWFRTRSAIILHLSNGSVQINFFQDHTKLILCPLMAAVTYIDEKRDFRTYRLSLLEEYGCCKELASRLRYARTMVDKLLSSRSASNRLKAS
Assay: PLK1 in vitro enzymatic activity assay (phosphorylation of alpha casein by recombinant PLK1)
Type: biochemical
Settings: recombinant FLAG-tagged PLK1, alpha casein substrate, 500 nmol/L ATP, 40 min at room temperature; read-out: pIC50 (PLK1) (converted)
experimentalReadout: IC50

Reference set (3 entries):
- COc1cc(C(=O)NCCN2CCCC2)ccc1Nc1ncc2c(n1)N(C1CCCCC1)CC(F)(F)C(=O)N2C [Compound 56]: > 2 nM
- CCOc1cc(C(=O)NC2CCN(C)CC2)ccc1Nc1ncc2c(n1)N(C1CCCC1)CC(F)(F)C(=O)N2C [Compound 29]: > 2 nM
- COc1cc(C(=O)NC2CCCN(C)CC2)ccc1Nc1ncc2c(n1)N(C1CCCC1)CC(F)(F)C(=O)N2C (stereo not shown) [Compound 15]: ≤ 2 nM

We now examine a further compound.
Exercise: Requested read-out: IC50. Entry: CCN1CCC(NC(=O)c2ccc(Nc3ncc4c(n3)N(C3CCCCC3)CC(F)(F)C(=O)N4C)c(OC)c2)CC1 [Compound 36]
Solution: ≤ 2 nM

====

experimentalReadout: melting point

Reference set (2 entries):
• COc1cc(C(=O)NC2CCN(C(=O)CN(C)C)CC2)ccc1Nc1ncc2c(n1)N(C1CCCCC1)CC(F)(F)C(=O)N2C = 190 to 191 °C
• COc1cc(C(=O)N[C@H]2CCNC2)ccc1Nc1ncc2c(n1)N(C1CCCCC1)CC(F)(F)C(=O)N2C = 258 to 263 °C

We now examine a further compound.
Exercise: Requested read-out: melting point. Entry: COc1cc(C(=O)N[C@@H]2CCN(C)C2)ccc1Nc1ncc2c(n1)N(C1CCCCC1)CC(F)(F)C(=O)N2C
Solution: 98 to 99 °C

====

Biological target: human PLK1 (Homo sapiens)
Construct: FLAG (DYKDDDDK) (N); made in house; host or cells: Sf21 insect cells, recombinant baculovirus (pFASTBAC1, Bac-to-Bac)
Assay: PLK1 in vitro enzymatic activity assay (phosphorylation of alpha casein by recombinant PLK1)
Format: biochemical
Conditions: recombinant FLAG-tagged PLK1, alpha casein substrate, 500 nmol/L ATP, 40 min at room temperature; read-out: pIC50 (PLK1) (converted)
Procedure: PCR was performed using the vector as a template. […] After XbaI and XhoI digestion of the PCR product, the fragment was subcloned into pFASTBAC1 (Invitrogen, USA). […] The inhibition of PLK1 by the compounds was determined with the following assay that measures the phosphorylation of alpha casein by recombinant PLK1. […] The radioactivity was counted by a Top-count scintillation counter (Packard, USA).
IC50 overview

Reference set (2 entries):
• COc1cc(C(=O)NC2CNC2)c(F)cc1Nc1ncc2c(n1)N(C1CCCC1)CC(F)(F)C(=O)N2C = ≤ 2 nM
• COc1cc(C(=O)NC2CCCNCC2)ccc1Nc1ncc2c(n1)N(C1CCCC1)CC(F)(F)C(=O)N2C (stereo not drawn) = ≤ 2 nM

Exercise: Requested read-out: IC50. Entry: COc1ccc(F)cc1Nc1ncc2c(n1)N(C1CCCC1)CC(F)(F)C(=O)N2C
Solution: > 2 nM

====

Target: human PLK1 (Homo sapiens, UniProt P53350)
Construct: FLAG (DYKDDDDK) (N); made in house; host or cells: Sf21 insect cells, recombinant baculovirus (pFASTBAC1, Bac-to-Bac)
Assay: PLK1 in vitro enzymatic activity assay (phosphorylation of alpha casein by recombinant PLK1)
Format: biochemical
Conditions: recombinant FLAG-tagged PLK1, alpha casein substrate, 500 nmol/L ATP, 40 min at room temperature; read-out: pIC50 (PLK1) (converted)
experimentalReadout: IC50

* COc1cc(C(=O)N[C@@H]2CCNC2)ccc1Nc1ncc2c(n1)N(C1CCCCC1)CC(F)(F)C(=O)N2C [Compound 73] | ≤ 2 nM
* COc1cc(C(=O)NC2CCN(C(=O)CN(C)C)CC2)ccc1Nc1ncc2c(n1)N(C1CCCC1)CC(F)(F)C(=O)N2C [Compound 11] | ≤ 2 nM

We now examine a further compound.
Exercise: Requested read-out: IC50. Entry: COc1cc(C(=O)N2CCN(CC3CC3)CC2)c(F)cc1Nc1ncc2c(n1)N(C1CCCC1)CC(F)(F)C(=O)N2C [Compound 135]
Solution: > 2 nM

Reference source for all entries: patent US20110201818A1
